This section presents compounds with their documented Emax (95% CI) values.
- System: C57BL/6 mice
- ASSAY_SUMMARY: Mouse head twitch response (HTR) assay
- Format: in vivo
- MEASUREMENT_CONTEXT: mouse HTR, SC, 20 min observation; curve fit
Note: the reply should be a number with no unit written.

A selection of reference data follows.
>>> test_value("C=CCN1C[C@H](C(=O)N[C@H](C)CC)C=C2c3cccc4[nH]cc(c34)C[C@H]21")
12.03
>>> test_value("CC[C@@H](C)NC(=O)[C@@H]1C=C2c3cccc4[nH]cc(c34)C[C@H]2N(CC)C1")
15.22
>>> test_value("C[C@H]1C[C@H](C)N1C(=O)[C@@H]1C=C2c3cccc4[nH]cc(c34)C[C@H]2N(C)C1")
10.93
>>> test_value("CC[C@@H](C)NC(=O)[C@@H]1C=C2c3cccc4[nH]cc(c34)C[C@H]2N(C)C1")
14.34
>>> test_value("CCC(CC)NC(=O)[C@@H]1C=C2c3cccc4[nH]cc(c34)C[C@H]2N(C)C1")
21.63
>>> test_value("CCN(CC)C(=O)[C@@H]1C=C2c3cccc4[nH]cc(c34)C[C@H]2N(CCCF)C1")
20.47
>>> test_value("CCCN1C[C@H](C(=O)N2[C@@H](C)C[C@@H]2C)C=C2c3cccc4[nH]cc(c34)C[C@H]21")
4.034
>>> test_value("CCCN1C[C@H](C(=O)N[C@H](C)CC)C=C2c3cccc4[nH]cc(c34)C[C@H]21")
25.56
>>> test_value("CCCN1C[C@H](C(=O)NC(CC)CC)C=C2c3cccc4[nH]cc(c34)C[C@H]21")
23.06
>>> test_value("CCC[C@@H](C)NC(=O)[C@@H]1C=C2c3cccc4[nH]cc(c34)C[C@H]2N(C)C1")
4.96

With C57BL/6 mice as the test system, provide measured Emax (95% CI) for this compound: `CCN(CC)C(=O)[C@@H]1C=C2c3cccc4[nH]cc(c34)C[C@H]2N(CCc2ccccc2OC)C1`
19.79

With C57BL/6 mice as the test system, provide measured Emax (95% CI) for this compound: `CCCN1C[C@H](C(=O)N(CC)CC)C=C2c3cccc4[nH]cc(c34)C[C@H]21`
21.63

With C57BL/6 mice as the test system, provide measured Emax (95% CI) for this compound: `CCC[C@@H](C)NC(=O)[C@@H]1C=C2c3cccc4[nH]cc(c34)C[C@H]2N(CCC)C1`
720.4

With C57BL/6 mice as the test system, provide measured Emax (95% CI) for this compound: `CCN(CC)C(=O)[C@@H]1C=C2c3cccc4[nH]cc(c34)C[C@H]2N(Cc2ccccc2OC)C1`
7.749
